Test system: panel of human cell lines
Assay: In vitro proliferation assay, Cell Titer Glo, two doubling times, 298 cell lines
Type: cell-based
Details: Homo sapiens, HGC-27, HGC-27, stomach; read-out: ABS_IC50_VALUE
QUANTITY_MEASURED: IC50

Exercise: Quick one: IC50 of "O=c1[nH]ccc2cc(F)c(NS(=O)(=O)c3ccc(N4CC[C@@H](O)C4)s3)cc12" ?
Solution: > 20 µM

* * *

Test system: panel of human cell lines
Assay: In vitro proliferation assay, Cell Titer Glo, two doubling times, 298 cell lines
Type: cell-based
Settings: Homo sapiens, RERF-LC-MS, lung; read-out: ABS_IC50_VALUE
QUANTITY_MEASURED: pIC50
Schema: pIC50 number; meaning minus log10 of the concentration expressed in molar units.

Exercise: Quick one: pIC50 of "O=c1[nH]ccc2cc(F)c(NS(=O)(=O)c3ccc(N4CC[C@@H](O)C4)s3)cc12" ?
Solution: 5.72

* * *

Tested on: panel of human cell lines
Assay: In vitro proliferation assay, Cell Titer Glo, two doubling times, 298 cell lines
Assay type: cell-based
Conditions: Homo sapiens, HCC1937, HCC1937, breast; read-out: ABS_IC50_VALUE
QUANTITY_MEASURED: IC50 (µM)
# number only, unit µM dropped from output

Exercise: Quick one: IC50 of "O=c1[nH]ccc2cc(F)c(NS(=O)(=O)c3ccc(N4CC[C@@H](O)C4)s3)cc12" ?
Solution: 18.5

* * *

Tested on: panel of human cell lines
Assay: In vitro proliferation assay, Cell Titer Glo, two doubling times, 298 cell lines
Format: cell-based
Conditions: Homo sapiens, T98G, T98G (central nervous system, glioblastoma multiforme); read-out: ABS_IC50_VALUE
QUANTITY_MEASURED: IC50 (µM)
# number only, unit µM dropped from output

Exercise: Quick one: IC50 of "O=c1[nH]ccc2cc(F)c(NS(=O)(=O)c3ccc(N4CC[C@@H](O)C4)s3)cc12" ?
Solution: 3.62

* * *

Target: UniProt P11586
Sequence (P11586 1-935): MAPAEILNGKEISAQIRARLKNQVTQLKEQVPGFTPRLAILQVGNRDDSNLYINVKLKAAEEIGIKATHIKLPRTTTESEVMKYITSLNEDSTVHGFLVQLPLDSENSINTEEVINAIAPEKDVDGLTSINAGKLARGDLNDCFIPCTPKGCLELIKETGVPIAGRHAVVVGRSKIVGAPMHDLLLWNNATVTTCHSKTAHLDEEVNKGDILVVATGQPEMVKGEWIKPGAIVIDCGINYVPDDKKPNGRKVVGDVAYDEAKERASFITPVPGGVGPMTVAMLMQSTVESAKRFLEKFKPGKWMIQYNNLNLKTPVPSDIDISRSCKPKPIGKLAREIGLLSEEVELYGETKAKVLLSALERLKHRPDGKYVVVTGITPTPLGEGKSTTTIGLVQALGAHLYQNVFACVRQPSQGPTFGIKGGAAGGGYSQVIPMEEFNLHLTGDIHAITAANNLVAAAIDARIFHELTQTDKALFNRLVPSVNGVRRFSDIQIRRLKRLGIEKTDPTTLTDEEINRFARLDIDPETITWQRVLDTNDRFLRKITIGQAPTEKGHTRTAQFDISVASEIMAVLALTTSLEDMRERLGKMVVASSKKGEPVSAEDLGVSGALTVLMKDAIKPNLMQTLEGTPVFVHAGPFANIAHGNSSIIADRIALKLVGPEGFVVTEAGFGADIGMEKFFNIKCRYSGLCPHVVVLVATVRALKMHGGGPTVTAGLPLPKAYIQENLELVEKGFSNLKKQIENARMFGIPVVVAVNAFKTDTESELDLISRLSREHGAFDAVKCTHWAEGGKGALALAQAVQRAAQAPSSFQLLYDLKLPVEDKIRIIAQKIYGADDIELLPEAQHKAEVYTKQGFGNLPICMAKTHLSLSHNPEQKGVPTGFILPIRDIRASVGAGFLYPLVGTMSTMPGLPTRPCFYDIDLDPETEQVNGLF
QUANTITY_MEASURED: IC50 (µM)
# number only, unit µM dropped from output

Exercise: Quick one: IC50 of "Nc1nc2[nH]cc(CCCc3ccc(C(=O)N[C@@H](CCC(=O)O)C(=O)O)cc3)c2c(=O)[nH]1" ?
Solution: 5.6
